assay-summary: self-splicing fitness, log relative to wild type (ln ratio); higher = more splicing; Tetrahymena group I intron in knt gene, E. coli kanamycin selection, DiMSum; sequences stand for … in CUCUCU…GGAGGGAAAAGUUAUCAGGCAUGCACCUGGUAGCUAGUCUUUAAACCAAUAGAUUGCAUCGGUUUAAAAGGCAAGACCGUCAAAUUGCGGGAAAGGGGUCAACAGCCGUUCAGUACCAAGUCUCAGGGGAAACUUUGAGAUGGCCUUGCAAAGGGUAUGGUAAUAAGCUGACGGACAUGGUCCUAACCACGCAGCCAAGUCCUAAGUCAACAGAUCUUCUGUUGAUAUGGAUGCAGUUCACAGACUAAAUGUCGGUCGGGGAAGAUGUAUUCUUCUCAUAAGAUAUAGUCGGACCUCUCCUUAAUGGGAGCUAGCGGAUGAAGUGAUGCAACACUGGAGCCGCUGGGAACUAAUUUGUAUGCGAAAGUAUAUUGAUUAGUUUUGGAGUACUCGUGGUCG;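 also: selection with 25 µg/mL kanamycin versus none on LB agar overnight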
measurement-parameters: 37 °C
# binarize self-splicing fitness (ln): threshold -1 inclusive, high side Yes, low side No

Check out these entries, answers already filled in.
IN: Textbook exercise: given the entry `GUCCAGCAAUAUUACGAAGA` , state whether its self-splicing fitness (ln) is greater than or equal to -1.
OUT: No

IN: Textbook exercise: given the entry `GAUUAGCAAUAUUACGGCUU` , state whether its self-splicing fitness (ln) is greater than or equal to -1.
OUT: Yes

IN: Textbook exercise: given the entry `UACGAGCAAUAUUACGGAGA` , state whether its self-splicing fitness (ln) is greater than or equal to -1.
OUT: No

IN: Textbook exercise: given the entry `AACCAGCAAUAUUACGAUCG` , state whether its self-splicing fitness (ln) is greater than or equal to -1.
OUT: Yes

---
IN: Textbook exercise: given the entry `UAAGAGCAAUAUUACGCUGG` , state whether its self-splicing fitness (ln) is greater than or equal to -1.
OUT: No

IN: Textbook exercise: given the entry `AGCAAGCAAUAUUACGCAAA` , state whether its self-splicing fitness (ln) is greater than or equal to -1.
OUT: No

IN: Textbook exercise: given the entry `UCGAAGCAAUAUUACGUUGU` , state whether its self-splicing fitness (ln) is greater than or equal to -1.
OUT: No

IN: Textbook exercise: given the entry `AUGCAGCAAUAUUACGCGCU` , state whether its self-splicing fitness (ln) is greater than or equal to -1.
OUT: No

IN: Textbook exercise: given the entry `AGACAGCAAUAUUACGAAUG` , state whether its self-splicing fitness (ln) is greater than or equal to -1.
OUT: No

IN: Textbook exercise: given the entry `CCAGAGCAAUAUUACGUCGA` , state whether its self-splicing fitness (ln) is greater than or equal to -1.
OUT: No

IN: Textbook exercise: given the entry `UUGCAGCAAUAUUACGUGAA` , state whether its self-splicing fitness (ln) is greater than or equal to -1.
OUT: Yes

IN: Textbook exercise: given the entry `UCACAGCAAUAUUACGCUAU` , state whether its self-splicing fitness (ln) is greater than or equal to -1.
OUT: No

IN: Textbook exercise: given the entry `UAUGAGCAAUAUUACGCGAG` , state whether its self-splicing fitness (ln) is greater than or equal to -1.
OUT: Yes

IN: Textbook exercise: given the entry `UCUCAGCAAUAUUACGGGCC` , state whether its self-splicing fitness (ln) is greater than or equal to -1.
OUT: No

IN: Textbook exercise: given the entry `GAGAAGCAAUAUUACGAUUC` , state whether its self-splicing fitness (ln) is greater than or equal to -1.
OUT: Yes

IN: Textbook exercise: given the entry `ACUCAGCAAUAUUACGUCCC` , state whether its self-splicing fitness (ln) is greater than or equal to -1.
OUT: Yes
